Measured Tumor-to-liver values are reported for all entries that follow.
# System: PC-3 PIP/flu tumor-bearing mice
# ASSAY NOTES: Biodistribution studies in PC-3 PIP/flu tumor-bearing mice
# COND: 4 h p.i.; PC-3 PIP tumor
Would you mind answering with just the numeric figure?

>  <COMPOUND>
Cc1ccc(CCCC(=O)NCCCC[C@H](NC(=O)CCC(C(=O)O)N2CCN(CC(=O)O)CCN(CC(=O)O)CC2)C(=O)NC[C@H]2CC[C@H](C(=O)N[C@H](Cc3ccc4ccccc4c3)C(=O)NCCCC[C@@H](NC(=O)N[C@H](CCC(=O)O)C(=O)O)C(=O)O)CC2)cc1 (some centres unmarked) [^64Cu-PSMA-ALB-89, metal not drawn]

>  <MEASURED QUANTITY>
Tumor-to-liver

>  <MEASURED VALUE>
13.3

$$$$

Turning to the following compound.
Req: Which Tumor-to-liver value is on record for Cc1ccc(CCCC(=O)NCCCCC(NC(=O)CN2CCN(CC(=O)O)CCN(CC(=O)O)CCN(CC(=O)O)CC2)C(=O)NCC2CCC(C(=O)NC(Cc3ccc4ccccc4c3)C(=O)NCCCCC(NC(=O)NC(CCC(=O)O)C(=O)O)C(=O)O)CC2)cc1 (centres unmarked) [44Sc-PSMA-ALB-06, metal not drawn] ?
Resp: 17.93

====

# Test system: PC-3 PIP/flu tumor-bearing mice
# ASSAY NOTES: Biodistribution studies in PC-3 PIP/flu tumor-bearing mice
# COND: 4 h p.i.
MEASURED QUANTITY: Kidneys (% IA/g)
Only the number, expressed in % IA/g, is required.

>  <COMPOUND>
O=C(O)CCC(NC(=O)NC(CCCCNC(=O)C(Cc1ccc2ccccc2c1)NC(=O)C1CCC(CNC(=O)C(CCCCNC(=O)CN2CCN(CC(=O)O)CCN(CC(=O)O)CCN(CC(=O)O)CC2)NC(=O)CC(NC(=O)CC(NC(=O)CC(NC(=O)CCCc2ccc(I)cc2)C(=O)O)C(=O)O)C(=O)O)CC1)C(=O)O)C(=O)O (centres unmarked) [^177Lu-PSMA-ALB-07, metal not drawn]

>  <TEST SYSTEM>
PC-3 PIP/flu tumor-bearing mice

>  <MEASURED VALUE>
67.0

$$$$

Req: Which Kidneys value is on record for O=C(O)CCC(NC(=O)NC(CCCCNC(=O)C(Cc1ccc2ccccc2c1)NC(=O)C1CCC(CNC(=O)C(CCCCNC(=O)CCCc2ccc(I)cc2)NC(=O)CN2CCN(CC(=O)O)CCN(CC(=O)O)CCN(CC(=O)O)CC2)CC1)C(=O)O)C(=O)O (centres unmarked) [^177Lu-PSMA-ALB-03, metal not drawn] ?
Resp: 24.5

====

Measured Lung values are reported for all entries that follow.
# System: PC-3 PIP/flu tumor-bearing mice
# ASSAY NOTES: Biodistribution studies in PC-3 PIP/flu tumor-bearing mice
# COND: 48 h p.i.
Only the number, expressed in % IA/g, is required.

Worked cases, Lung given:
>  <COMPOUND>
O=C(O)CCC(NC(=O)NC(CCCCNC(=O)C(Cc1ccc2ccccc2c1)NC(=O)C1CCC(CNC(=O)C(CCCCNC(=O)CN2CCN(CC(=O)O)CCN(CC(=O)O)CCN(CC(=O)O)CC2)NC(=O)CCCCCCC(=O)NC(CCCCNC(=O)CCCc2ccc(I)cc2)C(=O)O)CC1)C(=O)O)C(=O)O (stereo not shown) [^177Lu-PSMA-ALB-04, metal not drawn]

>  <Lung [% IA/g]>
24.6

$$$$
>  <COMPOUND>
O=C(O)CCC(NC(=O)NC(CCCCNC(=O)C(Cc1ccc2ccccc2c1)NC(=O)C1CCC(CNC(=O)C(CCCCNC(=O)CN2CCN(CC(=O)O)CCN(CC(=O)O)CCN(CC(=O)O)CC2)NC(=O)CC(NC(=O)CC(NC(=O)CCCc2ccc(I)cc2)C(=O)O)C(=O)O)CC1)C(=O)O)C(=O)O (stereo not shown) [^177Lu-PSMA-ALB-05, metal not drawn]

>  <Lung [% IA/g]>
1.48

$$$$
>  <COMPOUND>
O=C(O)CCC(NC(=O)NC(CCCCNC(=O)C(Cc1ccc2ccccc2c1)NC(=O)C1CCC(CNC(=O)C(CCCCNC(=O)CCCc2ccc(I)cc2)NC(=O)CN2CCN(CC(=O)O)CCN(CC(=O)O)CCN(CC(=O)O)CC2)CC1)C(=O)O)C(=O)O (stereo not shown) [^177Lu-PSMA-ALB-03, metal not drawn]

>  <Lung [% IA/g]>
7.45

$$$$

Turning to the following compound.
Req: Any idea what Lung came out for O=C(O)CCC(NC(=O)NC(CCCCNC(=O)C(Cc1ccc2ccccc2c1)NC(=O)C1CCC(n2cc(CC(NC(=O)CN3CCN(CC(=O)O)CCN(CC(=O)O)CCN(CC(=O)O)CC3)C(=O)NC(CCCCNC(=O)CCCc3ccc(I)cc3)C(=O)O)nn2)CC1)C(=O)O)C(=O)O (stereo not shown) [^177Lu-PSMA-ALB-01, metal not drawn] on PC-3 PIP/flu tumor-bearing mice?
Resp: 7.67

====

# System: PC-3 PIP/flu tumor-bearing mice
# ASSAY NOTES: Biodistribution studies in PC-3 PIP/flu tumor-bearing mice
# COND: 48 h p.i.
MEASURED QUANTITY: Salivary glands

Req: Which Salivary glands value is on record for O=C(O)CCC(NC(=O)NC(CCCCNC(=O)C(Cc1ccc2ccccc2c1)NC(=O)C1CCC(n2cc(CC(NC(=O)CN3CCN(CC(=O)O)CCN(CC(=O)O)CCN(CC(=O)O)CC3)C(=O)NC(CCCCNC(=O)CCCc3ccc(I)cc3)C(=O)O)nn2)CC1)C(=O)O)C(=O)O (stereo not shown) [^177Lu-PSMA-ALB-01, metal not drawn] ?
Resp: 3.96 ± 0.98 % IA/g

Req: Which Salivary glands value is on record for O=C(O)CCC(NC(=O)NC(CCCCNC(=O)C(Cc1ccc2ccccc2c1)NC(=O)C1CCC(CNC(=O)C(CCCCNC(=O)CCCc2ccc(I)cc2)NC(=O)CN2CCN(CC(=O)O)CCN(CC(=O)O)CCN(CC(=O)O)CC2)CC1)C(=O)O)C(=O)O (stereo not shown) [^177Lu-PSMA-ALB-03, metal not drawn] ?
Resp: 3.45 ± 1.09 % IA/g

Req: Which Salivary glands value is on record for O=C(O)CCC(NC(=O)NC(CCCCNC(=O)C(Cc1ccc2ccccc2c1)NC(=O)C1CCC(CNC(=O)C(CCCCNC(=O)CN2CCN(CC(=O)O)CCN(CC(=O)O)CCN(CC(=O)O)CC2)NC(=O)CCCCCCC(=O)NC(CCCCNC(=O)CCCc2ccc(I)cc2)C(=O)O)CC1)C(=O)O)C(=O)O (stereo not shown) [^177Lu-PSMA-ALB-04, metal not drawn] ?
Resp: 10.6 ± 0.42 % IA/g

Req: Which Salivary glands value is on record for O=C(O)CCC(NC(=O)NC(CCCCNC(=O)C(Cc1ccc2ccccc2c1)NC(=O)C1CCC(CNC(=O)C(CCCCNC(=O)CN2CCN(CC(=O)O)CCN(CC(=O)O)CCN(CC(=O)O)CC2)NC(=O)CC(NC(=O)CC(NC(=O)CCCc2ccc(I)cc2)C(=O)O)C(=O)O)CC1)C(=O)O)C(=O)O (stereo not shown) [^177Lu-PSMA-ALB-05, metal not drawn] ?
Resp: 0.45 ± 0.10 % IA/g

====

# System: PC-3 PIP/flu tumor-bearing mice
# ASSAY NOTES: Biodistribution studies in PC-3 PIP/flu tumor-bearing mice
# COND: 96 h p.i.
Measured Stomach values are reported for all entries that follow.
Only the number, expressed in % IA/g, is required.

>  <MOLECULE>
O=C(O)CCC(NC(=O)NC(CCCCNC(=O)C(Cc1ccc2ccccc2c1)NC(=O)C1CCC(n2cc(CC(NC(=O)CN3CCN(CC(=O)O)CCN(CC(=O)O)CCN(CC(=O)O)CC3)C(=O)NC(CCCCNC(=O)CCCc3ccc(I)cc3)C(=O)O)nn2)CC1)C(=O)O)C(=O)O (stereo not shown) [^177Lu-PSMA-ALB-01, metal not drawn]

>  <Stomach / % IA/g>
0.81

$$$$
>  <MOLECULE>
O=C(O)CCC(NC(=O)NC(CCCCNC(=O)C(Cc1ccc2ccccc2c1)NC(=O)C1CCC(CNC(=O)C(CCCCNC(=O)CN2CCN(CC(=O)O)CCN(CC(=O)O)CCN(CC(=O)O)CC2)NC(=O)CC(NC(=O)CC(NC(=O)CCCc2ccc(I)cc2)C(=O)O)C(=O)O)CC1)C(=O)O)C(=O)O (stereo not shown) [^177Lu-PSMA-ALB-05, metal not drawn]

>  <Stomach / % IA/g>
0.24

$$$$

Turning to the following molecule.
Req: Any idea what Stomach came out for O=C(O)CCC(NC(=O)NC(CCCCNC(=O)C(Cc1ccc2ccccc2c1)NC(=O)C1CCC(CNC(=O)C(CCCCNC(=O)CN2CCN(CC(=O)O)CCN(CC(=O)O)CCN(CC(=O)O)CC2)NC(=O)CCCCCCC(=O)NC(CCCCNC(=O)CCCc2ccc(I)cc2)C(=O)O)CC1)C(=O)O)C(=O)O (stereo not shown) [^177Lu-PSMA-ALB-04, metal not drawn] on PC-3 PIP/flu tumor-bearing mice?
Resp: 1.74
